molecular target: Human CD38 (Homo sapiens (Human), UniProt P28907); experiment: Determination of IC50 against human CD38 (CD38 Inhibitor Screening Assay Kit, glycohydrolase activity, fluorescence); type: biochemical; settings: CD38 hydrolase enzyme, 30 min preincubation at room temperature, F-NAD substrate, excitation 300 nm, emission 410 nm; read-out: hCD38 IC50
Sequence (P28907 whole entry): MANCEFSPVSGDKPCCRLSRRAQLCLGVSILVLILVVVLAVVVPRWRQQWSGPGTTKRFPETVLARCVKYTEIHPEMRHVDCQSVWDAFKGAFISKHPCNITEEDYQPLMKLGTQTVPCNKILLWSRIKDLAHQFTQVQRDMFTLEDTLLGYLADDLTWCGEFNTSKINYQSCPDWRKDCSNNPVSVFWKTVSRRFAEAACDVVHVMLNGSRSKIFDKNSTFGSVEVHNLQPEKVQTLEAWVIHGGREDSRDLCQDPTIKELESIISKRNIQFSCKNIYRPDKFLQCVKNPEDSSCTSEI
So basically, the class depends on measured IC50, and the ranges are 1: < 20 nM; 2: ≥ 20 nM and < 40 nM; 3: ≥ 40 nM

Example cases with answers are listed next.
mol=COCCO[C@H]1CC[C@H](NC(=O)c2cc(-c3cnn(C)c3)nc(-c3cncs3)c2)CC1 discrete_label=2
mol=COCCO[C@H]1CC[C@H](NC(=O)c2cc(F)cc(-n3ccnc3)n2)CC1 discrete_label=2
mol=COCCO[C@H]1CC[C@H](NC(=O)c2cc(-c3cncs3)nc(-c3cncs3)n2)CC1 discrete_label=3
mol=COCCO[C@H]1CC[C@H](NC(=O)c2cc(C(N)=O)nc(-n3ccnc3)n2)CC1 discrete_label=1
mol=COCCO[C@H]1CC[C@H](NC(=O)c2cc(-c3cnn(C(C)C)c3)nc(-n3ccnc3)c2)CC1 discrete_label=1
mol=O=C(NC1CCCCC1)c1cccc(-n2ccnc2)n1 discrete_label=3
mol=COCCO[C@H]1CC[C@H](NC(=O)c2cc(C(F)F)cc(-n3ccnc3)n2)CC1 discrete_label=2
mol=COCCO[C@H]1CC[C@H](NC(=O)c2cc(CO)nc(-n3ccnc3)n2)CC1 discrete_label=1

// switching to the query compound
Bin this entry: "COCCO[C@H]1CC[C@H](NC(=O)c2cccc(-n3ccnc3)n2)CC1"
3

====

biological target: Human CD38 (Homo sapiens (Human), UniProt P28907)
MEASURE_NAME: pIC50
Keep in mind that pIC50 stands for -log10 of concentration in molar terms.

Write down the reported pIC50 of "COCCO[C@H]1CC[C@H](NC(=O)c2cc(Cl)cc(-n3ccnc3)n2)CC1" , test system: Human CD38 (Homo sapiens (Human), UniProt P28907).
7.80

Write down the reported pIC50 of "COCCO[C@H]1CC[C@H](NC(=O)c2cc(-c3ccn(C)n3)nc(-n3ccnc3)c2)CC1" , test system: Human CD38 (Homo sapiens (Human), UniProt P28907).
6.82

Write down the reported pIC50 of "COCCO[C@H]1CC[C@H](NC(=O)c2cc(C(F)F)nc(-n3ccnc3)n2)CC1" , test system: Human CD38 (Homo sapiens (Human), UniProt P28907).
7.05

Write down the reported pIC50 of "COCCO[C@H]1CC[C@H](NC(=O)c2cc(-n3ccnc3)nc(-n3ccnc3)c2)CC1" , test system: Human CD38 (Homo sapiens (Human), UniProt P28907).
7.75

====

Attribute: pIC50
target: UniProt:P28907
Keep in mind that pIC50 stands for -log10 of concentration in molar terms.

mol=COCCO[C@H]1CC[C@H](NC(=O)c2cc(-c3cncs3)nc(-n3ccnc3)c2)CC1 observed_value=7.22
mol=COCCO[C@H]1CC[C@H](NC(=O)c2cc(S(C)(=O)=O)cc(-n3ccnc3)n2)CC1 observed_value=6.86
mol=COCCO[C@H]1CC[C@H](NC(=O)c2cc(-c3cnn(C)c3)nc(-c3cncs3)n2)CC1 observed_value=7.28
mol=COCCO[C@H]1CC[C@H](NC(=O)c2cc(-c3cnn(C)c3)nc(-n3ccnc3)c2)CC1 observed_value=7.68
mol=COCCO[C@H]1CC[C@H](NC(=O)c2cc(C#N)nc(-n3ccnc3)n2)CC1 observed_value=7.51

Write down the reported pIC50 of "COCCO[C@H]1CC[C@H](NC(=O)c2cc(-c3cncs3)nc(C(F)(F)F)c2)CC1" , test system: UniProt:P28907.
5.46

Write down the reported pIC50 of "COCCO[C@H]1CC[C@H](NC(=O)c2cc(OC)cc(-n3ccnc3)n2)CC1" , test system: UniProt:P28907.
7.06

Write down the reported pIC50 of "COCCO[C@H]1CC[C@H](NC(=O)c2cc(C(=O)O)nc(-n3ccnc3)n2)CC1" , test system: UniProt:P28907.
7.55
